Ref: patent US10227356B2

- System: mut-KRAS cells
- TEST_PROTOCOL: Proliferation assay, mut-KRAS cell lines
- Type: cell-based
- TEST_PARAMETERS: read-out: Ave IC50 mut-KRAS
For each record, write down the corresponding pIC50.
Give bare numbers, as −log10 of the molar value.

{"RECORD_SMILES": "COc1c(/C=C/CO)c(NS(=O)(=O)c2cccs2)cc2c1OCCO2", "pIC50": 4.41}

Please give pIC50 for each item listed below.
1. CCNC(=O)/C=C/c1c(NS(=O)(=O)c2cccs2)cc2c(c1OC)OCO2
2. COc1c(/C=C/C(=O)O)c(NS(=O)(=O)c2cccs2)cc2c1OCCO2
3. COc1c(/C=C/C(=O)NCc2ccco2)c(NS(=O)(=O)c2cccs2)cc2c1OCO2

**A:**
[5.00, 4.07, 5.28]

---

Provide the recorded half-life for the entries that follow.
- TEST_PROTOCOL: Pharmacokinetics (PK)
- Format: in vivo
- TEST_PARAMETERS: in vivo; read-out: PK T1/2 (converted)
# answer = value followed by unit

{"COMPOUND": "COc1c(/C=C/C(N)=O)c(NS(=O)(=O)c2cccs2)cc2c1OCO2 [Compound 107]", "half-life": "192 min"}
{"COMPOUND": "COc1c(/C=C/CO)c(NS(=O)(=O)c2cccs2)cc2c1OCO2 [Compound 152]", "half-life": "186 min"}
{"COMPOUND": "COc1c(/C=C/C(=O)NCc2ccco2)c(NS(=O)(=O)c2cccs2)cc2c1OCO2 [Compound 108]", "half-life": "60 min"}
{"COMPOUND": "CNC(=O)/C=C/c1c(NS(=O)(=O)c2cccs2)cc2c(c1OC)OCO2 [Compound 106]", "half-life": "102 min"}
{"COMPOUND": "COc1c(/C=C/C(=O)N2CCOCC2)c(NS(=O)(=O)c2cccs2)cc2c1OCO2 [Compound 109]", "half-life": "45 min"}
{"COMPOUND": "CCOC(=O)/C=C/c1c(NS(=O)(=O)c2cccs2)cc2c(c1OC)OCO2 [Compound 151]", "half-life": "30 min"}

Please supply half-life for each of the following items, keeping them in order.
1. CN1CC(=O)N(/C=C/c2cc(NS(=O)(=O)c3cccs3)c3c(c2O)OCO3)C1=O [Compound 91]
2. COc1c(/C=C/C(=O)N2CCN(C)CC2)c(NS(=O)(=O)c2cccs2)cc2c1OCO2 [Compound 111]

**A:**
["60 min", "60 min"]

---

- Tested on: mut-KRas NSCLC lines
- TEST_PROTOCOL: Proliferation assay 3D, mut-KRas NSCLC lines
- Type: cell-based
- TEST_PARAMETERS: range across mut-Kras cell lines, read-out: In vitro IC50 against mut-KRas NSCLC 3D range
pIC50: −log10 of the molar value.
Answer each item with its documented pIC50.

// each molecule listed below needs its pIC50
1. COc1c(/C=C/C(=O)N2CCN(C)CC2)c(NS(=O)(=O)c2cccs2)cc2c1OCO2 [Compound 111]
2. COc1c(/C=C/C(N)=O)c(NS(=O)(=O)c2cccs2)cc2c1OCO2 [Compound 107]
3. COc1c(/C=C/C(=O)NC2CC2)c(NS(=O)(=O)c2cccs2)cc2c1OCO2 [Compound 110]
4. CNC(=O)/C=C/c1c(NS(=O)(=O)c2cccs2)cc2c(c1OC)OCO2 [Compound 106]

**A:**
1. 4.88 to 6.92
2. 4.12 to 6.09
3. 4.12 to 6.64
4. 4.12 to 7.02

Provide reported pIC50 for each item, in the same order as listed.
1. COc1c(/C=C/CO)c(NS(=O)(=O)c2cccs2)cc2c1OCO2 [Compound 152]
2. CCOC(=O)/C=C/c1c(NS(=O)(=O)c2cccs2)cc2c(c1OC)OCO2 [Compound 151]

**A:**
6.59 to 7.82
5.57 to 7.60

---

Record form. Attribute: In vitro IC50 against mut-KRas NSCLC 3D ave. Fill in for each entry.
- Tested on: mut-KRas NSCLC lines
- TEST_PROTOCOL: Proliferation assay 3D, mut-KRas NSCLC lines
- Assay type: cell-based
- TEST_PARAMETERS: mean of 6 mut-KRas NSCLC lines

# annotated cases, reported In vitro IC50 against mut-KRas NSCLC 3D ave shown
{"RECORD_SMILES": "COc1c(/C=C/C(N)=O)c(NS(=O)(=O)c2cccs2)cc2c1OCO2", "RESULT": "1500 nM"}
{"RECORD_SMILES": "CCOC(=O)/C=C/c1c(NS(=O)(=O)c2cccs2)cc2c(c1OC)OCO2", "RESULT": "690 nM"}
{"RECORD_SMILES": "COc1c(/C=C/C(=O)NC2CC2)c(NS(=O)(=O)c2cccs2)cc2c1OCO2", "RESULT": "1200 nM"}
{"RECORD_SMILES": "CNC(=O)/C=C/c1c(NS(=O)(=O)c2cccs2)cc2c(c1OC)OCO2", "RESULT": "8400 nM"}

Now take the following compound into account.
**Q:** Please look up its In vitro IC50 against mut-KRas NSCLC 3D ave: COc1c(/C=C/C(=O)N2CCN(C)CC2)c(NS(=O)(=O)c2cccs2)cc2c1OCO2
**A:** 4100 nM

---

- TEST_PROTOCOL: Pharmacokinetics (PK)
- Assay type: in vivo
- Design: concentration or dose not given beside the values
- TEST_PARAMETERS: in vivo
READOUT_NAME: AUC (ng·h/mL)
Answers are plain numbers, in ng·h/mL.

These solved cases illustrate the format of a correct answer.
{"RECORD_SMILES": "COc1c(/C=C/C(N)=O)c(NS(=O)(=O)c2cccs2)cc2c1OCO2", "AUC [ng·h/mL]": 34500}
{"RECORD_SMILES": "COc1c(/C=C/C(=O)N2CCOCC2)c(NS(=O)(=O)c2cccs2)cc2c1OCO2", "AUC [ng·h/mL]": 1200}
{"RECORD_SMILES": "CNC(=O)/C=C/c1c(NS(=O)(=O)c2cccs2)cc2c(c1OC)OCO2", "AUC [ng·h/mL]": 7000}
{"RECORD_SMILES": "COc1c(/C=C/C(=O)NCc2ccco2)c(NS(=O)(=O)c2cccs2)cc2c1OCO2", "AUC [ng·h/mL]": 3410}
{"RECORD_SMILES": "COc1c(/C=C/CO)c(NS(=O)(=O)c2cccs2)cc2c1OCO2", "AUC [ng·h/mL]": 7000}

Please look at the following molecule next.
**Q:** For the molecule shown here, COc1c(/C=C/C(=O)N2CCN(C)CC2)c(NS(=O)(=O)c2cccs2)cc2c1OCO2 , give the reported AUC.
**A:** 30000
